Each entry below carries its reported Fbg.
Organism: Rattus norvegicus
ASSAY_REMARKS: Open TG-GATES - Regimen: Single
Type: toxicity, organism-based, Sprague-Dawley
Design: regimen Single, gender Male, age 6 weeks
CONDITION_CONTEXT: in vivo, po, 0 mg/kg, 9 h, tissue Blood, route gavage, dose level Control
Respond numerically; units are mg/dL and should not be typed.

Consider the following illustrative entries.
CN(C)CCCN1c2ccccc2CCc2ccccc21 : 291.6
CN1C(=O)CN=C(c2ccccc2)c2cc(Cl)ccc21 : 215.4
CC/C(=C(\c1ccccc1)c1ccc(OCCN(C)C)cc1)c1ccccc1 : 259.6
COc1cc2c(c(OC)c1OC)-c1ccc(OC)c(=O)cc1[C@@H](NC(C)=O)CC2 : 216.2
COC1=CC(=O)C[C@@H](C)[C@]12Oc1c(Cl)c(OC)cc(OC)c1C2=O : 226

Could you share which Fbg value was measured for `NNC(=O)c1ccncc1` ?
221.8

Recorded Fbg of CCOC(=O)CCC(=O)O[C@H]1[C@H](O[C@@H]2[C@@H](C)[C@H](O[C@H]3C[C@@](C)(OC)[C@@H](O)[C@H](C)O3)[C@@H](C)C(=O)O[C@H](CC)[C@@](C)(O)[C@H](O)[C@@H](C)C(=O)[C@H](C)C[C@@]2(C)O)O[C@H](C)C[C@@H]1N(C)C [ERYTHROMYCIN ETHYLSUCCINATE] , please.
319.6

----------
Organism: Rattus norvegicus
ASSAY_REMARKS: Open TG-GATES - Regimen: Daily Repeat
Assay type: toxicity, organism-based, Sprague-Dawley
Set-up: regimen Daily Repeat, gender Male, age 6 weeks
CONDITION_CONTEXT: in vivo, po, 0 mg/kg, […], tissue Plasma, route gavage, dose level Control, time 28 day
TC under 70 mg/dL gets 1, anything at or over 70 mg/dL gets -1.

Example entries begin here.
CCOC(=O)CCC(=O)O[C@H]1[C@H](O[C@@H]2[C@@H](C)[C@H](O[C@H]3C[C@@](C)(OC)[C@@H](O)[C@H](C)O3)[C@@H](C)C(=O)O[C@H](CC)[C@@](C)(O)[C@H](O)[C@@H](C)C(=O)[C@H](C)C[C@@]2(C)O)O[C@H](C)C[C@@H]1N(C)C [ERYTHROMYCIN ETHYLSUCCINATE] : 1
CCCNC(=O)NS(=O)(=O)c1ccc(Cl)cc1 [CHLORPROPAMIDE] : 1
CN(C)CCN(Cc1cccs1)c1ccccn1 : 1

Please determine if COc1ccc2[nH]c([S+]([O-])Cc3ncc(C)c(OC)c3C)nc2c1 (stereo not drawn) is below 70 mg/dL in terms of TC.
1

Criterion: TC strictly below 70 mg/dL. Is it met by `CN1C(=O)CN=C(c2ccccc2)c2cc(Cl)ccc21` ?
1

Consider `O=C(CCCN1CCC(O)(c2ccc(Cl)cc2)CC1)c1ccc(F)cc1` . Does its TC lie strictly below 70 mg/dL?
-1

Answer whether the molecule `NC(N)=Nc1nc(CSCCC(N)=NS(N)(=O)=O)cs1` has TC strictly less than 70 mg/dL
-1

Given the entry CCOc1ccc(NC(=O)CC(C)O)cc1 (stereo not drawn) , would its reported TC be below 70 mg/dL?
1

I wonder whether `COC1=CC(=O)C[C@@H](C)[C@]12Oc1c(Cl)c(OC)cc(OC)c1C2=O` has TC below 70 mg/dL. Can you tell?
-1

Check if TC falls below 70 mg/dL for `CC1=C(/C=C/C(C)=C/C=C/C(C)=C/CO)C(C)(C)CCC1` .
-1

----------
Organism: Rattus norvegicus
ASSAY_REMARKS: Open TG-GATES - Regimen: Single
Format: toxicity, organism-based, Sprague-Dawley
Parameters: regimen Single, gender Male, age 6 weeks
CONDITION_CONTEXT: in vivo, po, 0 mg/kg, 24 h, tissue Blood, route gavage, dose level Control
Reported PT values for a set of compounds
Quick reminder: number only, in s, skip the unit.

CCOc1ccc(NC(=O)CC(C)O)cc1 (stereo not given) : 14.3

Value lookup for PT; key = `CC/C(=C(\c1ccccc1)c1ccc(OCCN(C)C)cc1)c1ccccc1`
12.3

Quick one: PT of `Cc1ccc(C)c(OCCCC(C)(C)C(=O)O)c1` ?
12

Please look up its PT: `NC(N)=Nc1nc(CSCCC(N)=NS(N)(=O)=O)cs1`
11.9

Requested field: PT. Item: `CN(C)CCN(Cc1cccs1)c1ccccn1`
16.5

I'd like to know its PT. The compound in question is `COC1=CC(=O)C[C@@H](C)[C@]12Oc1c(Cl)c(OC)cc(OC)c1C2=O`
12.8

So what does the record say about PT for `CN(C)CCCN1c2ccccc2CCc2ccccc21` ?
16.1

Fill in the blank: the reported PT of `COc1cc2c(c(OC)c1OC)-c1ccc(OC)c(=O)cc1[C@@H](NC(C)=O)CC2` is ____.
11.2

Reported PT, compound `CC1=C(/C=C/C(C)=C/C=C/C(C)=C/CO)C(C)(C)CCC1` : ____
16.1

// query PT value for entry COc1ccc2[nH]c([S+]([O-])Cc3ncc(C)c(OC)c3C)nc2c1 (stereo not given)
12.1

For the compound `CN(C)CCCN1c2ccccc2CCc2ccc(Cl)cc21` , what PT is on record?
13.4

// PT lookup, key: CCOC(=O)CCC(=O)O[C@H]1[C@H](O[C@@H]2[C@@H](C)[C@H](O[C@H]3C[C@@](C)(OC)[C@@H](O)[C@H](C)O3)[C@@H](C)C(=O)O[C@H](CC)[C@@](C)(O)[C@H](O)[C@@H](C)C(=O)[C@H](C)C[C@@]2(C)O)O[C@H](C)C[C@@H]1N(C)C [ERYTHROMYCIN ETHYLSUCCINATE]
15.9

----------
Species on record: Rattus norvegicus
ASSAY_REMARKS: Open TG-GATES - Regimen: Single
Format: toxicity, organism-based, Sprague-Dawley
Design: regimen Single, gender Male, age 6 weeks
CONDITION_CONTEXT: in vivo, po, 100 mg/kg, 24 h, tissue Blood, route gavage, dose level Low
Here, each record is paired with measured Mono data.
Give the quantity in %, number only.

Solved cases (3 shown):
NC(N)=Nc1nc(CSCCC(N)=NS(N)(=O)=O)cs1 : 2.2
CCOC(=O)CCC(=O)O[C@H]1[C@H](O[C@@H]2[C@@H](C)[C@H](O[C@H]3C[C@@](C)(OC)[C@@H](O)[C@H](C)O3)[C@@H](C)C(=O)O[C@H](CC)[C@@](C)(O)[C@H](O)[C@@H](C)C(=O)[C@H](C)C[C@@]2(C)O)O[C@H](C)C[C@@H]1N(C)C [ERYTHROMYCIN ETHYLSUCCINATE] : 3
COC1=CC(=O)C[C@@H](C)[C@]12Oc1c(Cl)c(OC)cc(OC)c1C2=O : 3.2

Now for another entry.
So what's the measured Mono for this one? COc1ccc2[nH]c([S+]([O-])Cc3ncc(C)c(OC)c3C)nc2c1 (centres undefined)
2.4

----------
This listing pairs compounds with measured gamma-GTP.
Organism: Rattus norvegicus
ASSAY_REMARKS: Open TG-GATES - Regimen: Single
Format: toxicity, organism-based, Sprague-Dawley
Parameters: regimen Single, gender Male, age 6 weeks
CONDITION_CONTEXT: in vivo, po, 100 mg/kg, 6 h, tissue Plasma, route gavage, dose level Low
Answer format: value, then unit.

Below are worked cases with known answers.
COc1ccc2[nH]c([S+]([O-])Cc3ncc(C)c(OC)c3C)nc2c1 (centres undefined) [OMEPRAZOLE] : 1 IU/L
CCOC(=O)CCC(=O)O[C@H]1[C@H](O[C@@H]2[C@@H](C)[C@H](O[C@H]3C[C@@](C)(OC)[C@@H](O)[C@H](C)O3)[C@@H](C)C(=O)O[C@H](CC)[C@@](C)(O)[C@H](O)[C@@H](C)C(=O)[C@H](C)C[C@@]2(C)O)O[C@H](C)C[C@@H]1N(C)C [ERYTHROMYCIN ETHYLSUCCINATE] : 1.2 IU/L
NC(N)=Nc1nc(CSCCC(N)=NS(N)(=O)=O)cs1 [FAMOTIDINE] : 1.4 IU/L

Would you kindly look at the next entry?
Which gamma-GTP value is on record for COC1=CC(=O)C[C@@H](C)[C@]12Oc1c(Cl)c(OC)cc(OC)c1C2=O [GRISEOFULVIN] ?
1.6 IU/L

----------
Catalogue of LIVER values
Species: Rattus norvegicus
ASSAY_REMARKS: Open TG-GATES - Regimen: Daily Repeat
Format: toxicity, organism-based, Sprague-Dawley
Parameters: regimen Daily Repeat, gender Male, age 6 weeks
CONDITION_CONTEXT: in vivo, po, 1000 mg/kg, 72 h, tissue Liver, route gavage, dose level High, time 3 day
Report the figure in g without appending any unit label.

COC1=CC(=O)C[C@@H](C)[C@]12Oc1c(Cl)c(OC)cc(OC)c1C2=O : 11.5
CCOC(=O)CCC(=O)O[C@H]1[C@H](O[C@@H]2[C@@H](C)[C@H](O[C@H]3C[C@@](C)(OC)[C@@H](O)[C@H](C)O3)[C@@H](C)C(=O)O[C@H](CC)[C@@](C)(O)[C@H](O)[C@@H](C)C(=O)[C@H](C)C[C@@]2(C)O)O[C@H](C)C[C@@H]1N(C)C [ERYTHROMYCIN ETHYLSUCCINATE] : 9.5

Suppose we examine the compound COc1ccc2[nH]c([S+]([O-])Cc3ncc(C)c(OC)c3C)nc2c1 (stereo not given) ; what LIVER value has been reported?
15.4

Fill in the blank: the reported LIVER of CCOc1ccc(NC(=O)CC(C)O)cc1 (stereo not given) is ____.
11.8

Item under review: `NC(N)=Nc1nc(CSCCC(N)=NS(N)(=O)=O)cs1` . Reported LIVER?
10.4
